Measured values drawn from patent US20260078135A1 for this set.

# TGT: phosphorylated ERBB2 (pERBB2) (Homo sapiens)
# Construct: endogenous in cells
# Sequence (P04626 23-1255): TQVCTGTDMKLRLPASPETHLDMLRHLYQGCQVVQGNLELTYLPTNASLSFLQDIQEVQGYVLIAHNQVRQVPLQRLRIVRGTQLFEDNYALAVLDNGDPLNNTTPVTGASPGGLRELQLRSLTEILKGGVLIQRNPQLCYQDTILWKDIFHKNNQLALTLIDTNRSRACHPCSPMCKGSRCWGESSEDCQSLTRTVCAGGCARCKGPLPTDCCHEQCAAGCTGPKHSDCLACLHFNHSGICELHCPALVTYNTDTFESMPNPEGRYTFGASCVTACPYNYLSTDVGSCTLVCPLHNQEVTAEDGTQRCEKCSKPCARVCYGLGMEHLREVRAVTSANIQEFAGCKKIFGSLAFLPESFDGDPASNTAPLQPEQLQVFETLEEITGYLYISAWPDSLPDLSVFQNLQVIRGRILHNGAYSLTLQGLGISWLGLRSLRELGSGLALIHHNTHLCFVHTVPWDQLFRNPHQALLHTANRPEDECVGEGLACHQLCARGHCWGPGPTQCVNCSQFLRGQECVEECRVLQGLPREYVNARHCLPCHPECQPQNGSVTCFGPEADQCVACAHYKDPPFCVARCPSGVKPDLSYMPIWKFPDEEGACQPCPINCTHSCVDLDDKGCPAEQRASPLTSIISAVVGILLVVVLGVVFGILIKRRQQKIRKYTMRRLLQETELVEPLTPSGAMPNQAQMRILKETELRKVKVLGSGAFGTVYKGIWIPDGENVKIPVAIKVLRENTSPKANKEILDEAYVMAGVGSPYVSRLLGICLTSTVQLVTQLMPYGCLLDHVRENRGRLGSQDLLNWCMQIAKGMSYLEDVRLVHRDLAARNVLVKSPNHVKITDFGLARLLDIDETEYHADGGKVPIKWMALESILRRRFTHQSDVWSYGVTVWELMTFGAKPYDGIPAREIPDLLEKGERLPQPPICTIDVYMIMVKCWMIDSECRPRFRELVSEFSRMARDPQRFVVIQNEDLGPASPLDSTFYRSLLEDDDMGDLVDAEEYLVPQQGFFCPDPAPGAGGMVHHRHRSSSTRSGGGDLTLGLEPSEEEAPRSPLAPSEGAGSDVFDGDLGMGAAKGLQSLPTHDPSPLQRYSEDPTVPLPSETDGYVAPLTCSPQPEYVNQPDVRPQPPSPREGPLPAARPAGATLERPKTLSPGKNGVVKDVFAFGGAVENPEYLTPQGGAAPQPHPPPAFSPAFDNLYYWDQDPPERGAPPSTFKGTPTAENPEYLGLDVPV
# TEST METHOD NOTES: Detection of phosphorylated ERBB2 (pERBB2) by ELISA in BT-474 cells
# CONDITION LABEL: four hour incubation
The entries below are paired with their reported IC50.
METRIC: IC50 (µM)

TEST SMILES | TGT | NUMERIC RESULT
Cc1cc(Nc2ncnc3cc4c(cc23)N2CCN(C(=O)/C=C/CN(C)C)C[C@H]2CO4)ccc1Oc1ccn2ncnc2c1 | phosphorylated ERBB2 (pERBB2) (Homo sapiens) | 0.0361
Cc1cc(Nc2ncnc3cnc4c(c23)O[C@@H]2CCN(C)C[C@H]2N4C)ccc1Oc1ccc2c(c1)ncn2C | phosphorylated ERBB2 (pERBB2) (Homo sapiens) | 0.0419
C=CC(=O)N1CCN2c3ccc4ncnc(Nc5ccc(Oc6ccc7c(c6)ncn7C)c(C)c5)c4c3OC[C@@H]2C1 | phosphorylated ERBB2 (pERBB2) (Homo sapiens) | 0.0227
Cc1cc(Nc2ncnc3ccc4c(c23)OC[C@H]2CN4CCN2C(=O)/C=C/C2(F)CN(C)C2)ccc1Oc1ccn2ncnc2c1 | phosphorylated ERBB2 (pERBB2) (Homo sapiens) | 0.0172

###

# TGT: phosphorylated ERBB2 (pERBB2) (Homo sapiens)
# Construct: endogenous in cells
# TEST METHOD NOTES: Detection of phosphorylated ERBB2 (pERBB2) by ELISA in BT-474 cells
# CONDITION LABEL: four hour incubation
pIC50: −log10 of the molar value. Structures can show the parent of a compound that is named as a salt.

MOLECULE | pIC50
C=CC(=O)N1CCN2C[C@H]1COc1c2ccc2ncnc(Nc3ccc(Oc4ccc5c(c4)ncn5C)c(C)c3)c12 | 6.38
Cc1cc(Nc2ncnc3cc4c(cc23)N2CCN(C(=O)/C=C/CN(C)C)C[C@@H]2CO4)ccc1Oc1ccn2ncnc2c1 | 7.49
Cc1cc(Nc2ncnc3ccc4c(c23)OC[C@H]2CN4CCN2C(=O)/C=C/CN(C)C)ccc1Oc1ccn2ncnc2c1 | 8.06
Cc1cc(Nc2ncnc3ccc4c(c23)OC[C@@H]2CN4CCN2C(=O)/C=C/CN(C)C)ccc1Oc1ccc2c(c1)ncn2C | 6.52
Cc1cc(Nc2ncnc3ccc4c(c23)OC[C@H]2CN4CCN2)ccc1Oc1ccc2c(c1)ncn2C | 6.97
CN(C)C/C=C/C(=O)N1CCN2C[C@@H]1COc1c2ccc2ncnc(Nc3ccc(Oc4ccn5ncnc5c4)cc3)c12 | 8.19
C=CC(=O)N1CCN2c3cc4c(Nc5ccc(Oc6ccc7c(c6)ncn7C)c(C)c5)ncnc4cc3OC[C@H]2C1 | 7.51
Cc1cc(Nc2ncnc3ccc4c(c23)OC[C@@H]2CN(C(=O)/C=C/CN(C)C)CCN42)c(F)cc1Oc1ccn2ncnc2c1 | 7.68
C=CC(=O)N1CCN2c3cc4c(Nc5ccc(Oc6ccn7ncnc7c6)c(C)c5)ncnc4cc3OC[C@H]2C1 | 7.85
Cc1cc(Nc2ncnc3cc4c(nc23)N2CCN(C)C[C@@H]2CO4)ccc1Oc1ccc2c(c1)ncn2C | 6.82
Cc1cc(Nc2ncnc3cc4c(cc23)N2CCN(C(=O)/C=C/CN(C)C)C[C@H]2CO4)ccc1Oc1ccc2c(c1)ncn2C | 7.13
Cc1cc(Nc2ncnc3cnc4c(c23)OC[C@H]2CN(C(=O)/C=C/CN(C)C)CCN42)c(F)cc1Oc1ccn2ncnc2c1 | 7.88
Cc1cc(Nc2ncnc3ccc4c(c23)OC[C@@H]2CN4CCN2)ccc1Oc1ccc2c(c1)ncn2C | 6.27
Cc1cc(Nc2ncnc3ccc4c(c23)OC[C@@H]2CN(C(=O)/C=C/CN(C)C)CCN42)ccc1Oc1ccn2ncnc2c1 [Compound 19, formate] | 7.95
